TGT: AKT2 (Homo sapiens, UniProt P31751)
Sequence (P31751 whole entry): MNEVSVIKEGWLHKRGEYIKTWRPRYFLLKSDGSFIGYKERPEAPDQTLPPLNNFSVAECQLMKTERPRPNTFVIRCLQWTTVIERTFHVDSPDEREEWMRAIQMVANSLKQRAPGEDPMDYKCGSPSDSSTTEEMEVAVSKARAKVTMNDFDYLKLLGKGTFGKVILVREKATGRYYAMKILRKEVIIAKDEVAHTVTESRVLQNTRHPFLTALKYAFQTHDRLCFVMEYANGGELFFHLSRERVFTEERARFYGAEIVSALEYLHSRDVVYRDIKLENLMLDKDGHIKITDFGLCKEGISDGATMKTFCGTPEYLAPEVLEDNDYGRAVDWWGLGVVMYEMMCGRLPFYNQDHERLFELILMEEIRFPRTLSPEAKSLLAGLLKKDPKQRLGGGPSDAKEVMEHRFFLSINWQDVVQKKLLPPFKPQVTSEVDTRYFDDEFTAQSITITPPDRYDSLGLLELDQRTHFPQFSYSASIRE
READOUT KIND: IC50

## Input // query IC50 value for entry CS(=O)(=O)N1CCOc2nc(-c3ccc(C4(N)CCC4)cc3)c(-c3ccccc3)cc21
## Output 100 to 1000 nM

## Input Next record, please: CCc1nnc2n1-c1cc(-c3ccccc3)c(-c3ccc(C4(N)CCC4)cc3)nc1OC2
## Output 100 to 1000 nM

## Input Next record, please: NC1(c2ccc(-c3nc4c(cc3-c3ccccc3)-c3n[nH]c(NCCO)c3CC4)cc2)CCC1
## Output 1000 to 10000 nM

## Input Next record, please: COCC1Oc2nc(-c3ccc(C4(N)CCC4)cc3)c(-c3ccccc3)cc2N(C)C1=O (centres unmarked)
## Output 1000 to 10000 nM

## Input Next record, please: NC1(c2ccc(-c3nc4c(cc3-c3ccccc3)N(CC3CCC3)C(=O)CO4)cc2)CCC1
## Output ≤ 100 nM

## Input Next record, please: Cc1nnc2n1-c1cc(-c3ccccc3)c(-c3ccc(C4(N)CCC4)cc3)nc1OC2
## Output 1000 to 10000 nM

## Input Next record, please: NC1(c2ccc(-c3nc4c(cc3-c3ccccc3)-n3c(nnc3-c3ccncc3)CO4)cc2)CCC1
## Output 1000 to 10000 nM

## Input Next record, please: NC1(c2ccc(-c3nc4c(cc3-c3ccccc3)-n3c(nn(CC(F)(F)F)c3=O)CO4)cc2)CCC1
## Output 100 to 1000 nM

---

pIC50: −log10 of the molar value.
Entries with their measured pIC50, system AKT3 (Homo sapiens, UniProt Q9Y243):

Examples with answers:
CCCN1C(=O)COc2nc(-c3ccc(C4(N)CCC4)cc3)c(-c3ccccc3)cc21: 5.00 to 6.00
CCN1CCc2nc(-c3ccc(C4(N)CCC4)cc3)c(-c3ccccc3)cc2C1: < 5.00
NC1(c2ccc(-c3nc4c(cc3-c3ccccc3)N(Cc3ccncc3)C(=O)CO4)cc2)CCC1: 5.00 to 6.00

Could you now look at the following compound, please?
## Input // query pIC50 value for entry CC(CO)(CO)CN1C(=O)COc2nc(-c3ccc(C4(N)CCC4)cc3)c(-c3ccccc3)cc21
## Output 5.00 to 6.00

---

We begin with a simple list: items and their reported pIC50.
TGT: AKT2 (Homo sapiens, UniProt P31751)
Construct: purchased SignalChem
ASSAY TEXT: AKT Kinase Assay (IMAP fluorescent polarisation) vs AKT2
Type: biochemical
pIC50: −log10 of the molar value.

COCCN1C(=O)COc2nc(-c3ccc(C4(N)CCC4)cc3)c(-c3ccccc3)cc21 [Example 51]: 6.00 to 7.00
CC(CO)(CO)CN1C(=O)COc2nc(-c3ccc(C4(N)CCC4)cc3)c(-c3ccccc3)cc21 [Example 106]: 6.00 to 7.00
C=CCN1C(=O)COc2nc(-c3ccc(C4(N)CCC4)cc3)c(-c3ccccc3)cc21 [Example 67]: ≥ 7.00
CN1C(=O)COc2nc(-c3ccc([C@]4(N)C[C@](C)(O)C4)cc3)c(-c3ccccc3)cc21 [Example 113]: 6.00 to 7.00
C[C@]1(O)C[C@@](N)(c2ccc(-c3nc4c(cc3-c3ccccc3)N(CCF)C(=O)CO4)cc2)C1 [Example 145]: ≥ 7.00
CNc1[nH]nc2c1CCc1nc(-c3ccc(C4(N)CCC4)cc3)c(-c3ccccc3)cc1-2 [Example 11]: 6.00 to 7.00
C[C@]1(O)C[C@@](N)(c2ccc(-c3nc4c(cc3-c3ccccc3)N(CC3CC3)C(=O)CO4)cc2)C1 [Example 144]: ≥ 7.00

## Input // query pIC50 value for entry CN1C(=O)COc2nc(-c3ccc(C4(N)CCC4)cc3)c(-c3cccs3)cc21 [Example 126]
## Output 6.00 to 7.00

This collection of values is drawn from patent US9221838B2.
